quantity_measured: melting point

| compound | melting point |
| --- | --- |
| CC[Si](CC)(c1ccc(N(c2ccccc2)c2ccccc2)cc1)c1ccc(N(c2ccccc2)c2ccccc2)cc1 | 154 to 155 °C |
| CNC(=O)N1CCSC1c1ccccc1OCCN1CCN(c2ccccc2)CC1 (stereo not given) | 133 to 135 °C |
| CSc1ccc(C(C#N)=NO)cc1SC | 131 to 133 °C |

Form field: reported melting point of c1ccc2c(c1)CC(CN1CCC(c3c[nH]c4ccccc34)CC1)C2
146 to 147 °C

Form field: reported melting point of CCCCCCC(NS(=O)(=O)c1ccc(Cl)cc1)C(=O)Nc1ccc(CC(=O)OCC)cc1 (racemic)
110 to 112 °C

----------
Quick reference: melting point of the listed items.

Example entries begin here.
| molecule | melting point |
| --- | --- |
| CNc1cc(C)cc([N+](=O)[O-])c1N | 113 °C |
| CCCCCn1c2ccccc2c2cc(C(=O)N3CCCCC3)ncc21 | 126 to 127 °C |
| CC(=O)Oc1cc(-c2nc3ccccc3[nH]c2=O)cc([N+](=O)[O-])c1OC(C)=O | 241 to 243 °C |
| NC(=O)CCN1C(=O)C(=O)c2cc(F)ccc21 | 142 to 145 °C |
| OC[C@@H](O)[C@@H](c1cccc(Br)c1)N1CCc2cccc(OCc3ccccc3)c21 | 61 to 66 °C |

Form field: reported melting point of CCCCCc1nc2ccccc2[nH]1
161 to 162 °C

----------
quantity_measured: melting point

Example entries begin here.
| compound | melting point |
| --- | --- |
| CCCOc1cccc(C2(c3cccs3)N=C(N)N(C)C2=O)c1 (stereo not given) | 79 to 81 °C |
| CCCCC(Cn1cncn1)(NC(C)=O)c1ccc(Cl)cc1 (stereo not given) | 178 to 179 °C |
| COC(=O)CCc1ccc(N2CCN(c3ccc(C#N)cc3)C2=O)cc1 | 160 to 162 °C |
| COC(=O)c1ccc(C)c(SC(=O)c2ccc3c(c2)C(C)(C)CCC3(C)C)c1 | 120 °C |
| COC(=O)C(=CNc1cc(-c2cccc(Cl)c2)sc1C(=O)O)SC | 84 to 86 °C |
| CN1CC(CCN2CCC(c3c[nH]c4ccccc34)CC2)C=C2c3cccc4[nH]cc(c34)CC21 (stereo not given) | 184 to 187 °C |
| Clc1ccc2c(c1)C(c1ccccc1Cl)=NCc1nccn1-2 | 179 to 180 °C |
| COc1ccc(C2=Cc3ccc(O)cc3OC2)cc1 | 161 to 163 °C |
| O=C(CC(=O)C(F)(F)F)c1ccc(Cl)cc1 | 66 to 67 °C |
| Cn1ccnc1SCOC(=O)C(C)(C)C | 128 to 132 °C |

Okay, next one:
Form field: reported melting point of N[C@@H](Cc1c[nH]c2ccccc12)C(=O)N(N)C(=O)[C@H](Cc1c[nH]cn1)NC(=O)[C@@H]1CCC(=O)N1
165 to 169 °C

----------
Quick reference: melting point of the listed items.

Example entries begin here.
| molecule | quantity_measured | result |
| --- | --- | --- |
| Cc1cc2c(cc1Cl)N(C(=O)Nc1ccc(C)c(-c3cccnc3)c1)CC2 | melting point | 202 to 203 °C |
| Cc1cccc(N2CCN(CCc3c(C)nc4cc(C)ccn4c3=O)CC2)c1 | melting point | 96 to 97 °C |
| NC(=S)Nc1c(Br)cccc1Br | melting point | 186 to 189 °C |

Form field: reported melting point of CCN(CC)C(=O)CCc1nc(-c2ccccc2)nc2ccc(OC)cc12
144 °C

Form field: reported melting point of COc1c(C=O)c2cc(Cl)c(Cl)cc2n1C1CC(O)C(CO)O1 (stereo unspecified)
186 to 187 °C

Form field: reported melting point of CC(S)C(=O)NCCc1ccccc1 (stereo unspecified)
78 to 79 °C

Form field: reported melting point of CCCCc1cn(CCc2cccs2)c(=O)n1Cc1ccc(-c2ccccc2-c2nnn[nH]2)nc1
137 to 138 °C

Form field: reported melting point of COc1ccc2cc([C@H](C)C(=O)OCC(=O)OC(C)(C)C)ccc2c1
85 to 86 °C

Form field: reported melting point of CCCCc1nc2cc(C(=O)O)cc(C(=O)O)c2n1Cc1ccccc1Cl
299 to 301 °C

Form field: reported melting point of O=P(O)(O)C(Cc1cnsn1)P(=O)(O)O
> 300 °C

----------
Quick reference: melting point of the listed items.

Example entries begin here.
| compound | melting point |
| --- | --- |
| Nc1cc(N2CCNCC2)ccc1S(=O)(=O)c1ccc(F)cc1 | 144 to 146 °C |
| FC(F)c1nc2ccccc2n1-c1nc(NCc2ccccn2)nc(N2CCOCC2)n1 | 192 to 193 °C |
| CC(=O)OCc1cc(=O)n2c(ccn2-c2ccccc2)n1 | 172 to 175 °C |
| O=C(O)c1c(OCc2cccc(OCc3ccc4ccccc4n3)c2)cccc1C(F)(F)F | 184 to 185 °C |
| Cc1[nH]c2cc3c(cc2c1-c1ccccc1)C(C)(C)C=N3 | 233 to 235 °C |

Form field: reported melting point of O=C(NCC1CC1)c1ccnc(N2CCN(Cc3ccc(F)cc3)C2=O)c1
135 to 137 °C

Form field: reported melting point of CC(c1oc2ccccc2c(=O)c1-c1cccc(F)c1)n1nc(-c2ccc(F)cc2O)c2c(N)ncnc21 (centres undefined)
235 to 237 °C

Form field: reported melting point of OC1(c2ccc(F)cc2)CCN(Cc2ccnc(-c3ccccc3)c2)CC1
149 to 151 °C

Form field: reported melting point of Cc1ccc(NC(=O)c2ccc(C(=O)Nc3ccccc3N)s2)cc1Nc1nccc(-c2cccnc2)n1
280 °C

----------
Quick reference: melting point of the listed items.

Example entries begin here.
| molecule | result |
| --- | --- |
| COC(=O)c1ccc(Cc2cc3cc(Cl)ccc3[nH]2)cc1 | 118 °C |
| CCOC(=O)C(=O)Nc1ccccn1 | 73 to 75 °C |

Form field: reported melting point of Nc1nc(Cl)c2[nH]c(=O)n(CCCCO)c2n1
222 to 225 °C

Form field: reported melting point of CC1(C)OCC(C(O)CNC(=O)c2cc(C(=O)NCC(O)C3COC(C)(C)O3)cc(S(=O)(=O)Nc3ccc(F)c(C(F)(F)F)c3)c2)O1 (stereo not given)
217 to 218 °C

Form field: reported melting point of COC(=O)c1ccc2c(c1)C(c1ccccn1)=CC(C)(C)O2
94 to 95 °C

Form field: reported melting point of CCCCNC(=O)Nc1cccc2c1C(=O)c1c-2n[nH]c1-c1ccc(OC)cc1
252 °C

----------
quantity_measured: melting point

Example entries begin here.
| molecule | melting point |
| --- | --- |
| CCOC(=O)c1c(N2CCN(C(=O)c3cccs3)CC2)c2cc(Cl)cnc2n(CC(=O)c2ccccc2)c1=O | 227 °C |
| Cc1c(C2=NOC(CN3CCC(Cc4ccc(F)cc4)CC3)C2)cc2oc(=O)[nH]c2c1Cl (stereo not drawn) | 131 to 132 °C |
| CC(C)(C)Sc1cnn(-c2c(Cl)cc(C(F)(F)F)cc2Cl)c1N | 129 °C |

Form field: reported melting point of COc1ccc(C(=O)c2ccc3c(c2)CC(C(=O)O)C3)cc1 (stereo not drawn)
149 to 151 °C

Form field: reported melting point of CC1CCc2c(Cl)c(Cl)cc3c(=O)c(C(=O)O)cn1c23 (stereo not drawn)
269 to 271 °C

Form field: reported melting point of CC(C)(C)c1noc(-c2cccc(S(C)(=O)=O)n2)n1
165 to 167 °C

Form field: reported melting point of Cc1ccc(Oc2ccc(-c3noc(=O)[nH]3)cc2)c(O)c1
195 to 198 °C

Form field: reported melting point of O=C1c2ccccc2C(=O)N1CCCOC(Cl)Cl
101 to 103 °C

Form field: reported melting point of O=C(Nc1nc2cc(O)ccc2[nH]1)NC1CC1
320 °C

Form field: reported melting point of NC(=O)c1csnc1-c1cccc(C(F)(F)F)c1
141 to 142 °C

Form field: reported melting point of CC(C)Oc1cccc(C2(C)CN(C)CCC2O)c1 (stereo not drawn)
75 to 76 °C

Form field: reported melting point of CCCCOc1ccccc1C(=O)C=Cc1cc(OC)cc(OC)c1
69.5 to 70.1 °C

----------
quantity_measured: melting point

Example entries begin here.
| compound | melting point |
| --- | --- |
| CCCc1c(O)ccc2c1OC(C)(CCC(=O)OC)CC2=O (stereo not given) | 102 °C |
| CC(C)Nc1nc2cc(Cl)c(Cl)cc2n1[C@H]1O[C@@H](C)[C@H](O)[C@@H]1O | 103 to 105 °C |
| O=c1c2cc(C=NO)ccc2oc2ncccc12 | 254 to 256 °C |
| CN(C)C1CCN(c2cc3c(Cl)cccc3c(=O)[nH]2)CC1 | 210 to 211 °C |
| Cc1sc2c(Br)c3ccccc3c(-c3ccc(OS(=O)(=O)c4ccc(C(=O)O)c(O)c4)c(C(C)C)c3)c2c1C | > 225 °C |

Form field: reported melting point of CCOC(=O)c1ccc(NC(=N)c2ccc(OC)cc2)cc1
128 to 132 °C

Form field: reported melting point of COc1cc(Sc2ccccc2CCl)ccc1Cl
57 to 59 °C

Form field: reported melting point of CS(=O)(=O)c1ccc(C(CC2CCCC2)C(=O)Nc2ccc(Br)cn2)cc1Br (stereo not given)
83 to 86 °C

Form field: reported melting point of O=C(O)c1cc(O)cc2nc3c(O)cccc3nc12
> 300 °C

Form field: reported melting point of Cn1ccc(-c2cc(OC(F)F)n(-c3ccc(NC(=O)c4ccncc4F)cc3)n2)c1
135 to 136 °C
